Tested on: TK-10
Experiment summary: NCI tumour cell line growth inhibition, 48 h
Counter-ions that a name gives are not always drawn. Active and inactive are the calls of the source. Rule as the data show it: active = GI50 up to about 1.1 µM and inactive = higher.
Measurement label: GI50

[
  {
    "Compound": "O=C(Nc1ccccc1-c1nn(CO)c(=S)n(CO)c1=O)C(F)(F)F",
    "Readout value": "> 100 µM (inactive)"
  },
  {
    "Compound": "COc1ccc(C2(O)c3ccccc3C(=O)N(C)C2(O)c2ccc(OC)cc2)cc1 (stereo not drawn)",
    "Readout value": "59.4 µM (inactive)"
  },
  {
    "Compound": "CCCCCCCCCc1cc(=O)c2ccc(O)cc2o1",
    "Readout value": "30 µM (inactive)"
  },
  {
    "Compound": "CS(=O)(=O)OCCCSCCSCCCOS(C)(=O)=O",
    "Readout value": "> 100 µM (inactive)"
  },
  {
    "Compound": "Oc1cc(-c2cccs2)nc2cc3c(cc12)OCO3",
    "Readout value": "21.3 µM (inactive)"
  },
  {
    "Compound": "Cc1cccc(C)c1N1C(=O)C(=O)C(c2nc3ccccc3s2)/C(=N/c2cccc3c(=O)[nH][nH]c(=O)c23)C1=O (stereo not drawn)",
    "Readout value": "> 100 µM (inactive)"
  },
  {
    "Compound": "COn1cc(C=O)c2ccccc21",
    "Readout value": "> 54.3 µM (inactive)"
  },
  {
    "Compound": "CC1CC2(CC[C@@H]1O)OCCO2 (stereo partly drawn)",
    "Readout value": "> 100 µM (inactive)"
  },
  {
    "Compound": "Cc1cc(C)nc(NC(P(=O)(O)O)P(=O)(O)O)n1",
    "Readout value": "> 100 µM (inactive)"
  },
  {
    "Compound": "Nc1ccc(C(=O)O)cc1",
    "Readout value": "> 100 µM (inactive)"
  },
  {
    "Compound": "C/C(CC(O)(/C=N/O)c1ccccc1)=N/O (stereo not drawn)",
    "Readout value": "> 100 µM (inactive)"
  },
  {
    "Compound": "COC(=O)C(Cc1nc2ccccc2nc1O)C(=O)C(=O)Nc1ccc(OC)cc1[N+](=O)[O-] (stereo not drawn)",
    "Readout value": "> 100 µM (inactive)"
  },
  {
    "Compound": "CCOCc1cc(=O)c2cc3c(cc2o1)OC(C)(C)CC3",
    "Readout value": "> 100 µM (inactive)"
  },
  {
    "Compound": "COc1ccc(Oc2cnn(C(Br)(Br)C(C)=O)c(=O)c2Br)cc1",
    "Readout value": "13.5 µM (inactive)"
  },
  {
    "Compound": "CN1[C@@H]2CC[C@H]1C[C@@H](OC(c1ccccc1)c1ccccc1)C2 [BENZTROPINE MESYLATE]",
    "Readout value": "17.3 µM (inactive)"
  },
  {
    "Compound": "Cc1nn(C)cc1P(=S)(c1ccccc1)c1ccccc1",
    "Readout value": "> 100 µM (inactive)"
  },
  {
    "Compound": "CC(=O)N1N=C(c2ccc3ccccc3c2O)CC1c1ccc(N(C)C)cc1 (stereo not drawn)",
    "Readout value": "> 100 µM (inactive)"
  },
  {
    "Compound": "O=C(O)c1nc(-c2ccccn2)c(-c2ccccn2)nc1C(=O)O",
    "Readout value": "3.48 µM (inactive)"
  },
  {
    "Compound": "O=C(NCCCCCN1CCC2(CCCCC2)CC1)C(C1CCCCC1)C1CCCCC1",
    "Readout value": "4.71 µM (inactive)"
  },
  {
    "Compound": "Cn1c(=O)c2nc(CCCCc3nc4ccccc4[nH]3)[nH]c2n(C)c1=O",
    "Readout value": "> 100 µM (inactive)"
  },
  {
    "Compound": "CN(C(=O)[C@H](NC(=O)OCc1ccccc1)c1ccccc1)C1CCCCC1N1CCCC1 (stereo partly drawn)",
    "Readout value": "74.6 µM (inactive)"
  },
  {
    "Compound": "Nc1ccc2c(c1)C(=O)c1c(F)cccc1-2",
    "Readout value": "47.2 µM (inactive)"
  },
  {
    "Compound": "Cc1c(Br)c(Br)c(C)[s+]1[O-]",
    "Readout value": "21.2 µM (inactive)"
  }
]

All values here come from ChEMBL document CHEMBL1201862.
